TARGET OR SYSTEM: cIAP1-BIR2 (Homo sapiens (Human), UniProt Q13490)
Sequence (Q13490 173-257): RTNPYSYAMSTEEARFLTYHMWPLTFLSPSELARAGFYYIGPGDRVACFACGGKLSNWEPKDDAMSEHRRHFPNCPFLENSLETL
ASSAY DETAILS: BIR binding assay (FRET competition), cIAP1 BIR2
Procedure: The BIR domain binding assays are FRET based competition assays that utilize His-tagged versions of each of the BIR2 and BIR3 domains from cIAP1, cIAP2, and XIAP (each domain assayed separately) each at a custom optimal concentration and a probe, 200 nM SMAC/DIABLO peptide […] labelled with AlexaFluor647 (part #crb 1110326h, Discovery Peptides). The assay is conducted in 50 mM HEPES, […], 1 mM CHAPS, 5% Glycerol, 1 mM DTT, in dI water with a final pH of 7.4 and final volume of 20 uL. […]
pIC50: −log10 of the molar value.
Measured pIC50 by item

Reference set (2 entries):
{"SMILES DATA": "C[C@@H]1CN(CC(=O)N2CC(C)(C)c3[nH]c(=O)c(Cc4ccc(F)cc4)cc32)[C@@H](CN2CCO[C@@H](COc3cccc(OC[C@H]4CN(C[C@H]5CN[C@H](C)CN5CC(=O)N5CC(C)(C)c6[nH]c(=O)c(Cc7ccc(F)cc7)cc65)CCO4)c3)C2)CN1", "ENDPOINT NAME": "pIC50", "RESULT": "5.00 to 5.50"}
{"SMILES DATA": "C[C@@H]1CN(CC(=O)N2CC(C)(C)c3[nH]c(=O)c(Cc4ccc(F)cc4)cc32)[C@@H](CN2CCC[C@H](NC(=O)CCCCCCCCCCCCC(=O)N[C@H]3CCCN(C[C@H]4CN[C@H](C)CN4CC(=O)N4CC(C)(C)c5[nH]c(=O)c(Cc6ccc(F)cc6)cc54)C3)C2)CN1", "ENDPOINT NAME": "pIC50", "RESULT": "4.29 to 5.00"}

Which pIC50 reading was recorded for the molecule C[C@@H]1CN(CC(=O)N2CC(C)(C)c3[nH]c(=O)c(Cc4ccc(F)c(F)c4F)cc32)[C@@H](CN2CCO[C@H](C(=O)NCc3ccc(CNC(=O)[C@@H]4CN(C[C@H]5CN[C@H](C)CN5CC(=O)N5CC(C)(C)c6[nH]c(=O)c(Cc7ccc(F)c(F)c7F)cc65)CCO4)cc3)C2)CN1 ?
5.50 to 6.00

Continue with C[C@@H]1CN(CC(=O)N2CC(C)(C)c3[nH]c(=O)c(Cc4ccc(Br)cc4)cc32)[C@@H](CN2CCO[C@H](C(=O)NCc3ccc(CNC(=O)[C@@H]4CN(C[C@H]5CN[C@H](C)CN5CC(=O)N5CC(C)(C)c6[nH]c(=O)c(Cc7ccc(Br)cc7)cc65)CCO4)cc3)C2)CN1
6.00 to 7.65

Likewise for C[C@@H]1CN(CC(=O)N2CC(C)(C)c3[nH]c(=O)c(Cc4c(F)cc(F)cc4F)cc32)[C@@H](CN2CCO[C@H](C(=O)NCc3ccc(CNC(=O)[C@@H]4CN(C[C@H]5CN[C@H](C)CN5CC(=O)N5CC(C)(C)c6[nH]c(=O)c(Cc7c(F)cc(F)cc7F)cc65)CCO4)cc3)C2)CN1 ?
6.00 to 7.65

Another molecule to check: C[C@@H]1CN(CC(=O)N2CC(C)(C)c3c2cc(Cc2ccc(F)cc2)c(=O)n3C)[C@@H](CN2CCO[C@H](COCc3ccc(COC[C@@H]4CN(C[C@H]5CN[C@H](C)CN5CC(=O)N5CC(C)(C)c6c5cc(Cc5ccc(F)cc5)c(=O)n6C)CCO4)cc3)C2)CN1
5.00 to 5.50

Same question, C[C@@H]1CN(CC(=O)N2CC(C)(C)c3[nH]c(=O)c(Oc4ccccc4)cc32)[C@@H](CN2CCO[C@H](C(=O)NCc3ccc(CNC(=O)[C@@H]4CN(C[C@H]5CN[C@H](C)CN5CC(=O)N5CC(C)(C)c6[nH]c(=O)c(Oc7ccccc7)cc65)CCO4)cc3)C2)CN1 this time
5.00 to 5.50

* * *

// reported IC50 for each item listed
TARGET OR SYSTEM: XIAP-BIR3 (Homo sapiens (Human), UniProt P98170)
Sequence (P98170 241-356): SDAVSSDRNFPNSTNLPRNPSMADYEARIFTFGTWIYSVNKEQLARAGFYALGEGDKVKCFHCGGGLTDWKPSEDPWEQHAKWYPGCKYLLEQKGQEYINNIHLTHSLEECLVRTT
ASSAY DETAILS: BIR binding assay (FRET competition), XIAP BIR3

{"COMPOUND": "C[C@@H]1CN(CC(=O)N2CC(C)(C)c3[nH]c(=O)c(Cc4ccc(F)cc4)cc32)[C@@H](CN2CCO[C@H](C(=O)N(C)CC3CCN(C(=O)[C@@H]4CN(C[C@H]5CN[C@H](C)CN5CC(=O)N5CC(C)(C)c6[nH]c(=O)c(Cc7ccc(F)cc7)cc65)CCO4)CC3)C2)CN1 [Example 132]", "RESULT": "15.8 to 31.6 nM"}

What value of measured IC50 is listed for C[C@@H]1CN(CC(=O)N2CC(C)(C)c3[nH]c(=O)c(Cc4ccc(F)cc4)cc32)[C@@H](CN2CCO[C@H](COCC#CC#CCOC[C@@H]3CN(C[C@H]4CN[C@H](C)CN4CC(=O)N4CC(C)(C)c5[nH]c(=O)c(Cc6ccc(F)cc6)cc54)CCO3)C2)CN1 [Example 63] ?
15.8 to 31.6 nM

* * *

TARGET OR SYSTEM: cIAP1-BIR3 (Homo sapiens (Human), UniProt Q13490)
Sequence (Q13490 253-363): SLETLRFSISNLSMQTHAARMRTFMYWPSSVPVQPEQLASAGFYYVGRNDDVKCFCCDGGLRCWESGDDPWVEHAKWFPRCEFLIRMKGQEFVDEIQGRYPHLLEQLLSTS
ASSAY DETAILS: BIR binding assay (FRET competition), cIAP1 BIR3
ENDPOINT NAME: IC50

{"MOLECULE": "C[C@@H]1CN(CC(=O)N2CC(C)(C)c3[nH]c(=O)c(Cc4ccc(F)cc4)cc32)[C@@H](CN2CCN(CCc3cn(CCCC(=O)N4CCN(C[C@H]5CN[C@H](C)CN5CC(=O)N5CC(C)(C)c6[nH]c(=O)c(Cc7ccc(F)cc7)cc65)[C@H](C)C4)nn3)C[C@H]2C)CN1 [Compound 157]", "ENDPOINT NAME": "IC50", "RESULT": "7.94 to 15.8 nM"}

Would you mind telling me what IC50 value was observed for C[C@@H]1CN(CC(=O)N2CC(C)(C)c3[nH]c(=O)c(Cc4ccc(Cl)cc4C(F)(F)F)cc32)[C@@H](CN2CCO[C@H](C(=O)NCc3ccc(CNC(=O)[C@@H]4CN(C[C@H]5CN[C@H](C)CN5CC(=O)N5CC(C)(C)c6[nH]c(=O)c(Cc7ccc(Cl)cc7C(F)(F)F)cc65)CCO4)cc3)C2)CN1 [Compound 170] ?
1.38 to 7.94 nM

* * *

TARGET OR SYSTEM: cIAP2-BIR3 (Homo sapiens (Human))
Sequence (Q13489 238-349): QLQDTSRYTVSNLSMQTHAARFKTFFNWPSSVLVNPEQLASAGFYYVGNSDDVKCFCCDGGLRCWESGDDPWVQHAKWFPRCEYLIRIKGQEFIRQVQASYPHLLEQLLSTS
ASSAY DETAILS: BIR binding assay (FRET competition), cIAP2 BIR3
pIC50: −log10 of the molar value.
ENDPOINT NAME: pIC50

Examples with answers:
{"SMILES DATA": "C[C@@H]1CN(CC(=O)N2CC(C)(C)c3[nH]c(=O)c(Cc4ccc(F)cc4)cc32)[C@@H](CN2CCO[C@H](C(=O)NCCCN(C)C(=O)[C@@H]3CN(C[C@H]4CN[C@H](C)CN4CC(=O)N4CC(C)(C)c5[nH]c(=O)c(Cc6ccc(F)cc6)cc54)CCO3)C2)CN1", "pIC50": "7.80 to 8.10"}
{"SMILES DATA": "C[C@@H]1CN(CC(=O)N2CC(C)(C)c3[nH]c(=O)c(Cc4ccc(F)cc4F)cc32)[C@@H](CN2CCO[C@H](COc3cccc(OC[C@@H]4CN(C[C@H]5CN[C@H](C)CN5CC(=O)N5CC(C)(C)c6[nH]c(=O)c(Cc7ccc(F)cc7F)cc65)CCO4)c3)C2)CN1", "pIC50": "7.50 to 7.80"}
{"SMILES DATA": "C[C@@H]1CN(CC(=O)N2CC(C)(C)c3[nH]c(=O)c(Cc4ccc(F)cc4)cc32)[C@@H](CN2CCO[C@H](C(=O)NCC(=O)N3CCN(C[C@H]4CN[C@H](C)CN4CC(=O)N4CC(C)(C)c5[nH]c(=O)c(Cc6ccc(F)cc6)cc54)[C@H](C)C3)C2)CN1", "pIC50": "8.10 to 8.86"}

Query: pIC50; subject: C[C@@H]1CN(CC(=O)N2CC(C)(C)c3[nH]c(=O)c(Cc4ccc(F)cc4)cc32)[C@@H](CN2CCO[C@H](C(=O)NCCCN3CCN(CCCNC(=O)[C@@H]4CN(C[C@H]5CN[C@H](C)CN5CC(=O)N5CC(C)(C)c6[nH]c(=O)c(Cc7ccc(F)cc7)cc65)CCO4)CC3)C2)CN1
7.80 to 8.10

* * *

Measured IC50 of individual entries
TARGET OR SYSTEM: cIAP2-BIR2 (Homo sapiens (Human), UniProt Q13489)
Sequence (Q13489 158-242): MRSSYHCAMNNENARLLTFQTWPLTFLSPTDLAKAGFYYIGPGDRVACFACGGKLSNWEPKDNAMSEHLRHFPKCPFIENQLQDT
ASSAY DETAILS: BIR binding assay (FRET competition), cIAP2 BIR2
Method: The BIR domain binding assays are FRET based competition assays that utilize His-tagged versions of each of the BIR2 and BIR3 domains from cIAP1, cIAP2, and XIAP (each domain assayed separately) each at a custom optimal concentration and a probe, 200 nM SMAC/DIABLO peptide […] labelled with AlexaFluor647 (part #crb 1110326h, Discovery Peptides). The assay is conducted in 50 mM HEPES, […], 1 mM CHAPS, 5% Glycerol, 1 mM DTT, in dI water with a final pH of 7.4 and final volume of 20 uL. […]

Reference set (6 entries):
{"SMILES DATA": "C[C@@H]1CN(CC(=O)N2CC(C)(C)c3[nH]c(=O)c(Cc4ccc(F)cc4)cc32)[C@@H](CN2CCN(Cc3cn(CC(=O)N4CCN(C[C@H]5CN[C@H](C)CN5CC(=O)N5CC(C)(C)c6[nH]c(=O)c(Cc7ccc(F)cc7)cc65)[C@H](C)C4)nn3)C[C@H]2C)CN1", "TARGET OR SYSTEM": "cIAP2-BIR2 (Homo sapiens (Human), UniProt Q13489)", "IC50": "1000 to 3160 nM"}
{"SMILES DATA": "C[C@@H]1CN(CC(=O)N2CC(C)(C)c3[nH]c(=O)c(Cc4ccc(F)cc4)cc32)[C@@H](CN2CCN(CCCCCCCCCCN3CCN(C[C@H]4CN[C@H](C)CN4CC(=O)N4CC(C)(C)c5[nH]c(=O)c(Cc6ccc(F)cc6)cc54)[C@H](C)C3)C[C@H]2C)CN1", "TARGET OR SYSTEM": "cIAP2-BIR2 (Homo sapiens (Human), UniProt Q13489)", "IC50": "22.4 to 1000 nM"}
{"SMILES DATA": "C[C@@H]1CN(CC(=O)N2CC(C)(C)c3[nH]c(=O)c(Cc4ccc(F)cc4)cc32)[C@@H](CN2CCO[C@H](COc3cccc(OC[C@@H]4CN(C[C@H]5CN[C@H](C)CN5CC(=O)N5CC(C)(C)c6[nH]c(=O)c(Cc7ccc(F)cc7)cc65)CCO4)c3)C2)CN1", "TARGET OR SYSTEM": "cIAP2-BIR2 (Homo sapiens (Human), UniProt Q13489)", "IC50": "1000 to 3160 nM"}
{"SMILES DATA": "C[C@@H]1CN(CC(=O)N2CC(C)(C)c3[nH]c(=O)c(Cc4ccc(F)cc4)cc32)[C@@H](CN2CCC(CN(C)C(=O)c3cccc(C(=O)N(C)CC4CCN(C[C@H]5CN[C@H](C)CN5CC(=O)N5CC(C)(C)c6[nH]c(=O)c(Cc7ccc(F)cc7)cc65)CC4)c3)CC2)CN1", "TARGET OR SYSTEM": "cIAP2-BIR2 (Homo sapiens (Human), UniProt Q13489)", "IC50": "1000 to 3160 nM"}
{"SMILES DATA": "C[C@@H]1CN(CC(=O)N2CC(C)(C)c3[nH]c(=O)c(Cc4ccc(Cl)cc4C(F)(F)F)cc32)[C@@H](CN2CCO[C@H](C(=O)NCc3ccc(CNC(=O)[C@@H]4CN(C[C@H]5CN[C@H](C)CN5CC(=O)N5CC(C)(C)c6[nH]c(=O)c(Cc7ccc(Cl)cc7C(F)(F)F)cc65)CCO4)cc3)C2)CN1", "TARGET OR SYSTEM": "cIAP2-BIR2 (Homo sapiens (Human), UniProt Q13489)", "IC50": "1000 to 3160 nM"}
{"SMILES DATA": "C[C@@H]1CN(CC(=O)N2CC(C)(C)c3[nH]c(=O)c(Cc4ccc(F)cc4)cc32)[C@@H](CN2CCO[C@H](C(=O)NCCOCCNC(=O)[C@@H]3CN(C[C@H]4CN[C@H](C)CN4CC(=O)N4CC(C)(C)c5[nH]c(=O)c(Cc6ccc(F)cc6)cc54)CCO3)C2)CN1", "TARGET OR SYSTEM": "cIAP2-BIR2 (Homo sapiens (Human), UniProt Q13489)", "IC50": "1000 to 3160 nM"}

Next, consider the following molecule.
Which IC50 is reported for this molecule? C[C@@H]1CN(CC(=O)N2CC(C)(C)c3ncc(Cc4ccc(F)cc4)cc32)[C@@H](CN2CCO[C@H](COc3cccc(OC[C@@H]4CN(C[C@H]5CN[C@H](C)CN5CC(=O)N5CC(C)(C)c6ncc(Cc7ccc(F)cc7)cc65)CCO4)c3)C2)CN1
10000 to 51300 nM
